- Test system: M. avium complex (MAC)
- assay_details: MIC by microdilution method in 7H9 broth
- Type: cell-based
- condition_context: Mycobacterium avium, 336 h, MAC isolates; 2 wk; read-out: MIC (range)
The following compounds are listed with their measured MIC values.

Please review the following examples before continuing.
INSERT INTO measurements (compound, value_reported) VALUES
  ('CO[C@H]1[C@@H](O)[C@H](n2ccc(=O)[nH]c2=O)O[C@@H]1[C@@H](O[C@H]1OC(C(=O)Nc2ccc(Br)c(C)c2)=C[C@H](O)[C@@H]1O)C(N)=O', '0.5 to 8 µg/mL'),
  ('CO[C@H]1/C=C/O[C@@]2(C)Oc3c(C)c(O)c4c(O)c(c(/C=N/N5CCN(C)CC5)c(O)c4c3C2=O)NC(=O)/C(C)=C\C=C\[C@H](C)[C@H](O)[C@@H](C)[C@@H](O)[C@@H](C)[C@H](OC(C)=O)[C@@H]1C [RIF, rifampicin, reference compound]', '0.062 to 4 µg/mL'),
  ('CO[C@H]1[C@@H](O)[C@H](n2ccc(=O)[nH]c2=O)O[C@@H]1[C@@H](O[C@H]1OC(C(=O)Nc2ccc(C(F)(F)F)cc2)=C[C@H](O)[C@@H]1O)C(N)=O', '1 to 8 µg/mL');

Proceeding to the next compound to report its MIC.
stdin: Provide MIC value for the following compound: CCCCCCCCCC(=O)O[C@@H]1[C@H](OC)[C@@H]([C@@H](O[C@H]2OC(C(=O)N[C@H]3CCC[C@@H](C)NC3=O)=C[C@H](O)[C@@H]2O)C(N)=O)O[C@H]1n1ccc(=O)[nH]c1=O
stdout: 0.125 to 2 µg/mL
